Just for reference, patent US20090311283A1 is where these values come from.

# Target Desc: HLA-B*0702 (Human)
# Assay Procedure: competition with 125I-labelled probe peptide for purified HLA, gel filtration
Experimental Readout: binding affinity ratio (IC50 of standard peptide / IC50 of test peptide)
Give the figure by itself; no unit, no explanation.

Examples with their reported binding affinity ratio (IC50 of standard peptide / IC50 of test peptide) follow.
# Binder, Reported Result
records = [
    ("NPLGFFPDHQL (modifications not checked) [HBV ENV 9 peptide …]", 0.0012),
    ("PPAYRPPNAPI (modifications not checked)", 0.0003),
    ("PPHGGLLGW (modifications not checked) [HBV ENV 58 peptide …]", 0.0001),
]

Could you now consider this next binder?
Query :: I'd like to know its binding affinity ratio (IC50 of standard peptide / IC50 of test peptide). The binder in question is PPAYRPPNA (modifications not checked)
Result :: 0.0001
